// provenance: ChEMBL document CHEMBL5442219

Biological target: 5-hydroxytryptamine receptor 2C (Homo sapiens)
Sequence (whole entry): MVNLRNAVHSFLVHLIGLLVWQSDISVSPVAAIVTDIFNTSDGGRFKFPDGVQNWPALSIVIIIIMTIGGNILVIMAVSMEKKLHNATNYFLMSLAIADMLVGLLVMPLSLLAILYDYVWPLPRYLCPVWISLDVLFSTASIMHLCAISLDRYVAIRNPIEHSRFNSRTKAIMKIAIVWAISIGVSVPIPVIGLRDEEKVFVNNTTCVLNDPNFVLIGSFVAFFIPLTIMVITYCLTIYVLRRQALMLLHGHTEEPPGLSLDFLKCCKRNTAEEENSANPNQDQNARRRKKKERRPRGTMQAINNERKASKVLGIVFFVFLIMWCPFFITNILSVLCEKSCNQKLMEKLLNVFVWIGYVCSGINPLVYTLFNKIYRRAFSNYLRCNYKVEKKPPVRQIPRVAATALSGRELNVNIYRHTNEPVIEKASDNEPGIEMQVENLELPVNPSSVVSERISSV
Conditions: Compound concentration 10 µM
Description: PDSP Primary Binding target: HTR2C - Compounds are tested at 10 uM concentration, plate are incubated at room temperature in the dark for 90 minutes. Reaction are stopped by vacuum filtration onto 0.3% polyethyleneimine soaked filter mats using Filtermate harvester. Scintilation cocktail is then melted onto microwave-dried filters on a hot plate and the radio activity is counted in Microbia counter.
Outcome measure: inhibition (%)
Write the value in % as a bare number.

Cc1cc(NC(=O)Nc2ccc(N(C)C)cc2)c2cc(F)cc(F)c2n1 | 20.1

Query :: Form field: reported inhibition of `CCCn1c(=O)c2nc(C34CC5CC(CC3C5)C4)[nH]c2n(CCC)c1=O`
Result :: -0.12

Query :: Form field: reported inhibition of `CC[C@@H]1CN2C(=O)N(C)c3nc(-c4ccccc4)[nH]c3C2=N1`
Result :: 14.2

Query :: Form field: reported inhibition of CN1CCCC(n2nc(Cc3ccc(Cl)cc3)c3ccccc3c2=O)CC1 (centres undefined)
Result :: 93.7

* * *

Target: 5-hydroxytryptamine receptor 1A (Homo sapiens) (UniProt P08908)
Sequence (P08908 whole entry): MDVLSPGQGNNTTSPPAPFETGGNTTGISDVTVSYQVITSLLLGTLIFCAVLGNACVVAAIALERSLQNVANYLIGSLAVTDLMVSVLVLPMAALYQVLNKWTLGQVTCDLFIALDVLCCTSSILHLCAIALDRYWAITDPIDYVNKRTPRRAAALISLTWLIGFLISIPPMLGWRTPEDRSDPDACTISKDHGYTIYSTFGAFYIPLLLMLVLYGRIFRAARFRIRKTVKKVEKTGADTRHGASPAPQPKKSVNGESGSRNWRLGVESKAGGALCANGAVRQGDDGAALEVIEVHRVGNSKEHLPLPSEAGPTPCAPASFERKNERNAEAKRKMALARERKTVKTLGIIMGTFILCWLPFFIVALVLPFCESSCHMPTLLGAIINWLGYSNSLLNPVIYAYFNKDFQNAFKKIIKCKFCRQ
Details: Compound concentration 10 µM
Description: PDSP Primary Binding target: HTR1A - Compounds are tested at 10 uM concentration, plate are incubated at room temperature in the dark for 90 minutes. Reaction are stopped by vacuum filtration onto 0.3% polyethyleneimine soaked filter mats using Filtermate harvester. Scintilation cocktail is then melted onto microwave-dried filters on a hot plate and the radio activity is counted in Microbia counter.
inhibition values by entry
Write the value in % as a bare number.

Example cases with answers are listed next.
Cc1cc(C)c(N)c(C#Cc2cccc(F)c2)n1 | -6.48
Cc1ccc(O)c([C@H](CCN(C(C)C)C(C)C)c2ccccc2)c1 | -6.09
NC[C@H](O)c1ccc(O)c(O)c1 | -9.29
CC1=C2C[C@H]3[C@@H](CC=C4C[C@@H](O)CC[C@@]43C)[C@@H]2CC[C@]12O[C@@H]1C[C@H](C)CN[C@H]1[C@H]2C | 9.39
CCCCc1nc(Cl)c(CO)n1Cc1ccc(-c2ccccc2-c2nnn[nH]2)cc1 | 19.9

Query :: Form field: reported inhibition of `COc1cc2c(CCNC(C)=O)c[nH]c2cc1Cl`
Result :: -4.64

Query :: Form field: reported inhibition of `S=C(NCCCc1c[nH]cn1)NCCCN(Cc1ccc(Cl)c(Cl)c1)c1ccc(Br)cn1`
Result :: 43.2

Query :: Form field: reported inhibition of `CCc1nn2c(C)cc(C)nc2c1Cc1ccc(-c2nnc(C3CCNCC3)o2)cc1`
Result :: -1.59

Query :: Form field: reported inhibition of `COC1CCN(c2cccc(-c3cc(NC(C)=O)nc(-n4nc(C)cc4C)n3)n2)CC1`
Result :: 23.3

Query :: Form field: reported inhibition of `O=c1ccn([C@@H]2O[C@H](COP(=O)(O)OP(=O)(O)OP(=O)(O)O)[C@@H](O)[C@H]2O)c(=O)[nH]1`
Result :: 26.3

Query :: Form field: reported inhibition of `Cc1nc(C(=O)N2CCC[C@H]2Cc2nnc(-c3ccccc3)o2)c(-c2ccccc2F)s1`
Result :: 3.86

* * *

Target: Sodium-dependent dopamine transporter (Homo sapiens) (UniProt Q01959)
Sequence (Q01959 whole entry): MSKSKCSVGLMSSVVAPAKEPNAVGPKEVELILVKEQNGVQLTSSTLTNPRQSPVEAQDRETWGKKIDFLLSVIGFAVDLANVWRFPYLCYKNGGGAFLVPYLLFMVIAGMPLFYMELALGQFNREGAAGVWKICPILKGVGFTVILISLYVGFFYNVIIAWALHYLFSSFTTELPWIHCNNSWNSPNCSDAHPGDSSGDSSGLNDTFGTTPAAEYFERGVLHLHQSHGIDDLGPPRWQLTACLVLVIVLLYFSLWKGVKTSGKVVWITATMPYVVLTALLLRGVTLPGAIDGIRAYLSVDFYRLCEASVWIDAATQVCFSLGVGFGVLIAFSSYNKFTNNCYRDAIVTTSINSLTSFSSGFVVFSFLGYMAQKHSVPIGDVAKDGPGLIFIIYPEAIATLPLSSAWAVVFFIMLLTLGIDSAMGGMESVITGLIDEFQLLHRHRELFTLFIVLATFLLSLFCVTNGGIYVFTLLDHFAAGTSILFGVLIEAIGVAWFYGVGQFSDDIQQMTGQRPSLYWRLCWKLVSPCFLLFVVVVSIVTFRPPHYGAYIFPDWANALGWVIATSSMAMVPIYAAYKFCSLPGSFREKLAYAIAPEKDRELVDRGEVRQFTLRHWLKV
Conditions: Compound concentration 10 µM
Description: PDSP Primary Binding target: SLC6A3 - Compounds are tested at 10 uM concentration, plate are incubated at room temperature in the dark for 90 minutes. Reaction are stopped by vacuum filtration onto 0.3% polyethyleneimine soaked filter mats using Filtermate harvester. Scintilation cocktail is then melted onto microwave-dried filters on a hot plate and the radio activity is counted in Microbia counter.
inhibition values by entry
Write the value in % as a bare number.

Cc1ccccc1N1CCN(S(=O)(=O)C[C@]23CC[C@H](C[C@@H]2NC(=O)[C@@H](N)CCS(C)(=O)=O)C3(C)C)CC1 | 30.4

Query :: Hi! What's the reported inhibition for `CCCCN1CCC(COC(=O)c2cc(Cl)c(N)c3c2OCCO3)CC1` on Sodium-dependent dopamine transporter (Homo sapiens) (UniProt Q01959)?
Result :: 19.5

Query :: Hi! What's the reported inhibition for `NC[C@@H]1O[C@H](C23CC4CC(CC(C4)C2)C3)Cc2c1ccc(O)c2O` on Sodium-dependent dopamine transporter (Homo sapiens) (UniProt Q01959)?
Result :: 68.4

Query :: Hi! What's the reported inhibition for `FC(F)(F)c1c(N2CCC(c3ccccc3)CC2)ccn2c(CC3CC3)nnc12` on Sodium-dependent dopamine transporter (Homo sapiens) (UniProt Q01959)?
Result :: 54.2

Query :: Hi! What's the reported inhibition for `CC(C)NC(=O)c1ccc(C#Cc2ccncc2)cn1` on Sodium-dependent dopamine transporter (Homo sapiens) (UniProt Q01959)?
Result :: 24.2

Query :: Hi! What's the reported inhibition for `N#Cc1c(N)nc(SCc2csc(-c3ccc(Cl)cc3)n2)c(C#N)c1-c1ccc(OCCO)cc1` on Sodium-dependent dopamine transporter (Homo sapiens) (UniProt Q01959)?
Result :: 64.1

Query :: Hi! What's the reported inhibition for `CC(C)(N)C(=O)N[C@H](COCc1ccccc1)C(=O)N1CCC2(CC1)CN(S(C)(=O)=O)c1ccccc12` on Sodium-dependent dopamine transporter (Homo sapiens) (UniProt Q01959)?
Result :: 39.5

Query :: Hi! What's the reported inhibition for `CCc1cc(C(C)=O)c(O)cc1OCCCCCC(C)(C)c1nn[nH]n1` on Sodium-dependent dopamine transporter (Homo sapiens) (UniProt Q01959)?
Result :: 32.8

Query :: Hi! What's the reported inhibition for `CN1CCC(=C2c3ccccc3CC(=O)c3sccc32)CC1` on Sodium-dependent dopamine transporter (Homo sapiens) (UniProt Q01959)?
Result :: 20.7

Query :: Hi! What's the reported inhibition for `Clc1ccc(CCCOCCCN2CCCCC2)cc1` on Sodium-dependent dopamine transporter (Homo sapiens) (UniProt Q01959)?
Result :: 25.6

Query :: Hi! What's the reported inhibition for `Cc1csc(NC(=O)c2cc(F)cc(Oc3cncnc3)c2)n1` on Sodium-dependent dopamine transporter (Homo sapiens) (UniProt Q01959)?
Result :: 56.1

* * *

Molecular target: Sodium-dependent dopamine transporter (Homo sapiens)
Details: Compound concentration 10 µM
Outcome measure: inhibition

CC(C)NCC(O)c1ccc(N)c(C#N)c1 (configuration not stated) | 29%
COc1ccc(S(=O)(=O)N2c3ccc(Cl)cc3[C@](O)(c3ccccc3Cl)[C@@H]2C(=O)N2CCC[C@H]2C(N)=O)cc1OC | 42.4%
CN1CCC(C(=O)c2cccc(NC(=O)c3c(F)cc(F)cc3F)n2)CC1 | 42.1%
COc1ccc(S(=O)(=O)c2cc(OC)ccc2S(=O)(=O)c2ccc([C@H](C)NS(C)(=O)=O)cc2)cc1 | 18.8%
CCc1nn2c(C)cc(C)nc2c1Cc1ccc(-c2nnc(C3CCNCC3)o2)cc1 | 4.13%
Cc1nn(C)c(C)c1-c1cccc2c1CC[C@H](N(C)C)C2 | 37.9%

Please examine the following record next.
Query :: Form field: reported inhibition of `CN(C)S(=O)(=O)c1ccc(NC(=S)N2CCC(C(O)(c3ccccc3)c3ccccc3)CC2)cc1`
Result :: 33.1%

* * *

inhibition values by entry
Target: Mu-type opioid receptor (Homo sapiens)
Settings: Compound concentration 10 µM
Description: PDSP Primary Binding target: OPRM1 - Compounds are tested at 10 uM concentration, plate are incubated at room temperature in the dark for 90 minutes. Reaction are stopped by vacuum filtration onto 0.3% polyethyleneimine soaked filter mats using Filtermate harvester. Scintilation cocktail is then melted onto microwave-dried filters on a hot plate and the radio activity is counted in Microbia counter.

Example cases with answers are listed next.
CC(C)Oc1ccccc1C(=O)Nc1ccccc1C(=O)Nc1cccc(S(=O)(=O)C(F)(F)F)c1 | -7.51%
N#Cc1c(N)nc(SCC(N)=O)c(C#N)c1-c1ccc(OCC2CC2)cc1 | -0.63%
CC(C)NCC(O)COc1cccc2[nH]ccc12 (centres undefined) | 16.8%

Please examine the following record next.
Query :: Form field: reported inhibition of `COc1ccc(OC(F)(F)F)cc1CN[C@H]1CCCN[C@H]1c1ccccc1`
Result :: 41.3%

* * *

Target: Beta-2 adrenergic receptor (Homo sapiens)
Conditions: Compound concentration 10 µM; call rule not given here
Form entry, call: pick from True for active, False for inactive

// known answers, use as guide
Cc1cc(NC(=O)NCCN2CCC(O)(Cc3ccccc3)CC2)c2ccccc2n1 | False
CC(C)(C(=O)O)c1ccc(C(O)CCCN2CCC(C(O)(c3ccccc3)c3ccccc3)CC2)cc1 (stereo not drawn) | False
Cc1cc(C)c(N)c(C#Cc2cccc(F)c2)n1 | False
CN1CCCC(n2nc(Cc3ccc(Cl)cc3)c3ccccc3c2=O)CC1 (stereo not drawn) | False
CC1=C2C[C@H]3[C@@H](CC=C4C[C@@H](O)CC[C@@]43C)[C@@H]2CC[C@]12O[C@@H]1C[C@H](C)CN[C@H]1[C@H]2C | False
Cc1cc(C)cc(-c2cnc3cc(Cl)c(-c4cccc(O)c4)cc3c2OCCCN)c1 | True
COc1cc2c(CCNC(C)=O)c[nH]c2cc1Cl | False

Query :: Returns: the outcome recorded for `O=C1N/C(=N/c2ccccc2F)S/C1=C\c1ccc(C(=O)O)cc1` in this assay.
Result :: False

* * *

Molecular target: 5-hydroxytryptamine receptor 1E (Homo sapiens) (UniProt P28566)
Sequence (P28566 whole entry): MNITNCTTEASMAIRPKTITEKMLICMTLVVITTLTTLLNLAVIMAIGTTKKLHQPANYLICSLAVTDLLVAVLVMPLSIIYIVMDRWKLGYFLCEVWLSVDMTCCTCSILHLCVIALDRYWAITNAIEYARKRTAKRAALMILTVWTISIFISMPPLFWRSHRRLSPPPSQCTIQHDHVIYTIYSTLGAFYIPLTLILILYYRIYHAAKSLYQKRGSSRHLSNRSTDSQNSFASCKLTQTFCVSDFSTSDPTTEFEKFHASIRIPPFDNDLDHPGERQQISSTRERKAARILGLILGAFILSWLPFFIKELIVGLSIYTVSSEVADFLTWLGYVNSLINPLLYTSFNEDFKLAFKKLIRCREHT
Settings: Compound concentration 10 µM
Description: PDSP Primary Binding target: HTR1E - Compounds are tested at 10 uM concentration, plate are incubated at room temperature in the dark for 90 minutes. Reaction are stopped by vacuum filtration onto 0.3% polyethyleneimine soaked filter mats using Filtermate harvester. Scintilation cocktail is then melted onto microwave-dried filters on a hot plate and the radio activity is counted in Microbia counter.
Outcome measure: inhibition (%)
Write the value in % as a bare number.

CCCCN(CC)c1nc(C)nc2c1c(C)cn2-c1c(C)cc(C)cc1C | 18.4
Cc1nc(C#Cc2ccnc(Cl)c2)c(C)n1-c1ccc(OC(F)(F)F)cc1 | 20.5
Cc1nnn(-c2ccc(-c3ccc(C4(C(=O)O)CC4)cc3)cc2)c1NC(=O)O[C@H](C)c1ccccc1 | 1.32
COc1cc2nc(N3CCN(C(=O)c4ccco4)CC3)nc(N)c2cc1OC | 2.33
CN1CCN(c2ccc(Nc3c4ccccc4nc4ccccc34)cc2)CC1 | 46.2

Query :: Form field: reported inhibition of COc1ccc(C2(O)OC(=O)C(c3ccc4c(c3)OCO4)=C2Cc2cc(OC)c(OC)c(OC)c2)cc1 (stereo unspecified)
Result :: -4.29

Query :: Form field: reported inhibition of `O=C(O)C1CN(Cc2ccc(-c3nc4cc(Cc5ccccc5F)ccc4s3)c(F)c2)C1`
Result :: 31.1

Query :: Form field: reported inhibition of CC(C)NCC(O)COc1cccc2[nH]ccc12 (stereo unspecified)
Result :: 20

Query :: Form field: reported inhibition of `Cc1csc(NC(=O)c2cc(F)cc(Oc3cncnc3)c2)n1`
Result :: -3.74

Query :: Form field: reported inhibition of `CC(C)(C)NC[C@H](O)COc1nsnc1N1CCOCC1`
Result :: 7.32

Query :: Form field: reported inhibition of `FC(F)(F)c1c(N2CCC(c3ccccc3)CC2)ccn2c(CC3CC3)nnc12`
Result :: 21.9

Query :: Form field: reported inhibition of `O=C(Cc1ccc(Cl)c(Cl)c1)N1CCCC[C@H]1CN1CCCC1`
Result :: 1.08

Query :: Form field: reported inhibition of `O=C(Nc1ccc(Cl)cc1)Nc1cccc(-c2cccc(N3CCCC3)n2)c1`
Result :: 2.89

Query :: Form field: reported inhibition of `CCCCN(CCCC)C(=O)CN1C[C@@H](c2ccc3c(c2)OCO3)[C@H](C(=O)O)[C@H]1c1ccc(OC)cc1`
Result :: -0.09

Query :: Form field: reported inhibition of `CCCCc1nc(Cl)c(CO)n1Cc1ccc(-c2ccccc2-c2nnn[nH]2)cc1`
Result :: 7.06

Query :: Form field: reported inhibition of `N#Cc1c(O)nc(SCc2cccc(F)c2F)nc1C1CC1`
Result :: -5.94

Query :: Form field: reported inhibition of `Cc1nc(C(=O)N2CCC[C@H]2Cc2nnc(-c3ccccc3)o2)c(-c2ccccc2F)s1`
Result :: -8.85

Query :: Form field: reported inhibition of `CCOC(=O)c1cc(C#N)c(N2CCC(C(=O)NS(=O)(=O)Cc3ccccc3)CC2)nc1C`
Result :: -8.79

Query :: Form field: reported inhibition of `NC[C@@H]1O[C@H](C23CC4CC(CC(C4)C2)C3)Cc2c1ccc(O)c2O`
Result :: 22.3
